ASSAY_NAME: Hygroscopicity: open weighing bottles in a constant temperature and humidity incubator, moisture absorption rate
Assay type: physicochemical
CONDITION_NOTES: 25° C., 75% humidity, 1 month
OBSERVATION_TYPE: Moisture absorption rates after 1 month (%)
The answer is to be given in %; state only the numeric part.

Enquiry: Request the reported Moisture absorption rates after 1 month associated with CN(C)C[C@@H]1C(=O)O[C@@H]2C[C@@]3(C)CC[C@@H](O)[C@]4(CO4)[C@@H]3C[C@H]12.O=C(O)CCC(=O)O [Example 1]
Return: 2.7

Enquiry: Then this compound: CN(C)C[C@@H]1C(=O)O[C@@H]2C[C@@]3(C)CC[C@@H](O)[C@]4(CO4)[C@@H]3C[C@H]12.O=C(O)CCC(=O)O [compound 1]
Return: 12.7

Enquiry: Then this compound: CN(C)C[C@@H]1C(=O)O[C@@H]2C[C@@]3(C)CC[C@@H](O)[C@]4(CO4)[C@@H]3C[C@H]12.O=C(O)CCC(=O)O [Example 2]
Return: 3.8

Enquiry: Then this compound: CN(C)C[C@@H]1C(=O)O[C@@H]2C[C@@]3(C)CC[C@@H](O)[C@]4(CO4)[C@@H]3C[C@H]12.O=C(O)CCC(=O)O [Example 3]
Return: 2.2

* * *

Reported Moisture absorption rates after 2 weeks values follow for various compounds
ASSAY_NAME: Hygroscopicity: open weighing bottles in a constant temperature and humidity incubator, moisture absorption rate
Assay type: physicochemical
CONDITION_NOTES: 25° C., 75% humidity, 2 weeks
The answer is to be given in %; state only the numeric part.

Example entries and their recorded answers appear below.
[[record]]
compound = "CN(C)C[C@@H]1C(=O)O[C@@H]2C[C@@]3(C)CC[C@@H](O)[C@]4(CO4)[C@@H]3C[C@H]12.O=C(O)CCC(=O)O [Example 1]"
unit_descriptor = "%"
observed = 1.4

[[record]]
compound = "CN(C)C[C@@H]1C(=O)O[C@@H]2C[C@@]3(C)CC[C@@H](O)[C@]4(CO4)[C@@H]3C[C@H]12.O=C(O)CCC(=O)O [Example 3]"
unit_descriptor = "%"
observed = 1.6

[[record]]
compound = "CN(C)C[C@@H]1C(=O)O[C@@H]2C[C@@]3(C)CC[C@@H](O)[C@]4(CO4)[C@@H]3C[C@H]12.O=C(O)CCC(=O)O [Example 2]"
unit_descriptor = "%"
observed = 1.9


Then there is this compound:
Enquiry: Request the reported Moisture absorption rates after 2 weeks associated with CN(C)C[C@@H]1C(=O)O[C@@H]2C[C@@]3(C)CC[C@@H](O)[C@]4(CO4)[C@@H]3C[C@H]12.O=C(O)CCC(=O)O [compound 1]
Return: 8.1

* * *

ASSAY_NAME: Absorption experiment (pharmacokinetics and bioavailability) in rats
Type: in vivo
CONDITION_NOTES: Sprague Dawley, plasma, 30 mg/kg; rat, intravenous injection (30 mpk)
OBSERVATION_TYPE: half-life (h)
The answer is to be given in h; state only the numeric part.

Enquiry: Request the reported half-life associated with "CN(C)C[C@@H]1C(=O)O[C@@H]2C[C@@]3(C)CC[C@@H](O)[C@]4(CO4)[C@@H]3C[C@H]12.O=C(O)CCC(=O)O"
Return: 1.35

* * *

ASSAY_NAME: Hygroscopicity: open weighing bottles in a constant temperature and humidity incubator, moisture absorption rate
Format: physicochemical
CONDITION_NOTES: 25° C., 75% humidity, 2 months
OBSERVATION_TYPE: Moisture absorption rates after 2 months (%)
The answer is to be given in %; state only the numeric part.

Example entries and their recorded answers appear below.
[[record]]
compound = "CN(C)C[C@@H]1C(=O)O[C@@H]2C[C@@]3(C)CC[C@@H](O)[C@]4(CO4)[C@@H]3C[C@H]12.O=C(O)CCC(=O)O [compound 1]"
observation_type = "Moisture absorption rates after 2 months"
observed = 22.6

[[record]]
compound = "CN(C)C[C@@H]1C(=O)O[C@@H]2C[C@@]3(C)CC[C@@H](O)[C@]4(CO4)[C@@H]3C[C@H]12.O=C(O)CCC(=O)O [Example 3]"
observation_type = "Moisture absorption rates after 2 months"
observed = 2.8

[[record]]
compound = "CN(C)C[C@@H]1C(=O)O[C@@H]2C[C@@]3(C)CC[C@@H](O)[C@]4(CO4)[C@@H]3C[C@H]12.O=C(O)CCC(=O)O [Example 2]"
observation_type = "Moisture absorption rates after 2 months"
observed = 3.1


Then there is this compound:
Enquiry: Request the reported Moisture absorption rates after 2 months associated with CN(C)C[C@@H]1C(=O)O[C@@H]2C[C@@]3(C)CC[C@@H](O)[C@]4(CO4)[C@@H]3C[C@H]12.O=C(O)CCC(=O)O [Example 1]
Return: 3.2

* * *

ASSAY_NAME: Absorption experiment (pharmacokinetics and bioavailability) in rats
Format: in vivo
CONDITION_NOTES: Sprague Dawley, plasma, 150 mg/kg; rat, oral administration (150 mpk)
OBSERVATION_TYPE: Tmax (min)
The answer is to be given in min; state only the numeric part.

Enquiry: Request the reported Tmax associated with "CN(C)C[C@@H]1C(=O)O[C@@H]2C[C@@]3(C)CC[C@@H](O)[C@]4(CO4)[C@@H]3C[C@H]12.O=C(O)CCC(=O)O"
Return: 40.2

* * *

ASSAY_NAME: Absorption experiment (pharmacokinetics and bioavailability) in rats
Format: in vivo
CONDITION_NOTES: Sprague Dawley, plasma, 150 mg/kg; rat, oral administration (150 mpk)
OBSERVATION_TYPE: Cmax

Enquiry: Request the reported Cmax associated with "CN(C)C[C@@H]1C(=O)O[C@@H]2C[C@@]3(C)CC[C@@H](O)[C@]4(CO4)[C@@H]3C[C@H]12.O=C(O)CCC(=O)O"
Return: 56.3 µg/mL

* * *

ASSAY_NAME: Absorption experiment (pharmacokinetics and bioavailability) in rats
Type: in vivo
CONDITION_NOTES: Sprague Dawley, rat, plasma, oral, 150 mpk, po 150 mpk vs iv 30 mpk, read-out: bioavailability
OBSERVATION_TYPE: bioavailability (%)
The answer is to be given in %; state only the numeric part.

Enquiry: Request the reported bioavailability associated with "CN(C)C[C@@H]1C(=O)O[C@@H]2C[C@@]3(C)CC[C@@H](O)[C@]4(CO4)[C@@H]3C[C@H]12.O=C(O)CCC(=O)O"
Return: 85.8

* * *

ASSAY_NAME: Absorption experiment (pharmacokinetics and bioavailability) in rats
Format: in vivo
CONDITION_NOTES: Sprague Dawley, plasma, 30 mg/kg; rat, intravenous injection (30 mpk)
OBSERVATION_TYPE: Tmax
In your response, the unit should come after the numeric value.

Enquiry: Request the reported Tmax associated with "CN(C)C[C@@H]1C(=O)O[C@@H]2C[C@@]3(C)CC[C@@H](O)[C@]4(CO4)[C@@H]3C[C@H]12.O=C(O)CCC(=O)O"
Return: 6.6 min

* * *

ASSAY_NAME: Absorption experiment (pharmacokinetics and bioavailability) in rats
Assay type: in vivo
CONDITION_NOTES: Sprague Dawley, rat, plasma, oral, 150 mpk, crystal form A prepared by the methods in example 1 and example 3; read-out: bioavailabilities
Experimental: Trial rats were Sprague Dawley rats, 7 rats in total, 1 rat was used as blank control, and blank plasma was taken to be used. […] According to the set time schedule, blood was collected from orbital vein to put in a blood collection vessel containing heparin sodium, centrifuged for 10min at 4° C. and 3500rpm, the supernatant of plasma was taken and put into EP tube, and the content of the compound of structural formula (I) in blood was detected. […]
OBSERVATION_TYPE: bioavailability

Enquiry: Request the reported bioavailability associated with "CN(C)C[C@@H]1C(=O)O[C@@H]2C[C@@]3(C)CC[C@@H](O)[C@]4(CO4)[C@@H]3C[C@H]12.O=C(O)CCC(=O)O"
Return: > 85.5%

* * *

ASSAY_NAME: Absorption experiment (pharmacokinetics and bioavailability) in rats
Format: in vivo
CONDITION_NOTES: Sprague Dawley, plasma, 150 mg/kg; rat, oral administration (150 mpk)
OBSERVATION_TYPE: AUC (µg·h/mL)
The answer is to be given in µg·h/mL; state only the numeric part.

Enquiry: Request the reported AUC associated with "CN(C)C[C@@H]1C(=O)O[C@@H]2C[C@@]3(C)CC[C@@H](O)[C@]4(CO4)[C@@H]3C[C@H]12.O=C(O)CCC(=O)O"
Return: 174

* * *

ASSAY_NAME: Absorption experiment (pharmacokinetics and bioavailability) in rats
Format: in vivo
CONDITION_NOTES: Sprague Dawley, plasma, 30 mg/kg; rat, intravenous injection (30 mpk)
OBSERVATION_TYPE: Cmax (ng/mL)
The answer is to be given in ng/mL; state only the numeric part.

Enquiry: Request the reported Cmax associated with "CN(C)C[C@@H]1C(=O)O[C@@H]2C[C@@]3(C)CC[C@@H](O)[C@]4(CO4)[C@@H]3C[C@H]12.O=C(O)CCC(=O)O"
Return: 21300
